Tested on: HS 578T breast
Experiment: NCI tumour cell line growth inhibition, 48 h; in the data active means GI50 below about 0.43 µM; inactive means the rest
Outcome (select one): 1 (active), 0 (inactive)

Data request: What classification did Cc1cc(O[C@@H]2O[C@@H](C)[C@H](O)[C@@H](O)[C@H]2O)c2c3c(c(O[C@@H]4O[C@@H](C)[C@H](O)[C@@H](O)[C@H]4O)cc2c1)C(=O)c1c(O)cccc1C3=O end up with in this test?
Data returned: 0

Data request: What classification did O=C(/C=C/c1ccco1)Nc1ncc(Cc2cccc(C(F)(F)F)c2)s1 end up with in this test?
Data returned: 1

Data request: What classification did COc1ccc(CN2C(=O)/C(=C\C(=O)c3ccc(OCCN4CCCC4)cc3)c3ccccc32)cc1 end up with in this test?
Data returned: 0

Data request: What classification did O=C(Nc1ccc(Oc2ccc(NC(=O)Nc3ccccc3Cl)cc2)cc1)Nc1ccccc1Cl end up with in this test?
Data returned: 0

Data request: What classification did O=C1Nc2ccc(O)cc2/C1=C\c1ccncc1 end up with in this test?
Data returned: 0

Data request: What classification did COc1cc(N2CCN(C(C)C)CC2)ccc1Nc1nc(Nc2ccc(F)cc2C(=O)NCC(O)CO)c2cc[nH]c2n1 (configuration not stated) end up with in this test?
Data returned: 0

Data request: What classification did COc1ccc(C2=NN(C=O)C(c3ccc(OS(=O)(=O)c4ccc(C)cc4)c(OC)c3)C2)cc1 (configuration not stated) end up with in this test?
Data returned: 0

* * *

Tested on: SF-268 CNS
Assay: NCI tumour cell line growth inhibition, 48 h; in the data active = GI50 below about 0.43 µM; inactive = the rest
Outcome (select one): yes for active, no for inactive

Data request: What classification did COc1ccc(CN2C(=O)/C(=C\C(=O)c3ccc(OCCN4CCCC4)cc3)c3ccccc32)cc1 end up with in this test?
Data returned: no

Data request: What classification did CC(C)C(=O)Nc1ccc(-c2nc(-c3cccc(OCCN4CCOCC4)c3)c(-c3ccnc(Br)c3)[nH]2)cc1 end up with in this test?
Data returned: no

Data request: What classification did CON=C1C[C@]2(C[C@@H]3C[C@@H](C/C=C(\C)C[C@@H](C)/C=C/C=C4\CO[C@@H]5[C@H](O)C(C)=C[C@@H](C(=O)O3)[C@]45O)O2)O[C@H](/C(C)=C/C(C)C)[C@H]1C end up with in this test?
Data returned: no

Data request: What classification did CC(=O)NC(CS)C(=O)O (stereo unspecified) end up with in this test?
Data returned: no

Data request: What classification did C=C1C(=O)O[C@@H]2C[C@@H]1CC[C@]1(C)O[C@H]1CC/C(C)=C/CC[C@@]2(C)O end up with in this test?
Data returned: no

Data request: What classification did O=C(CN1CCN(CCN2C(=O)c3cccc4cccc(c34)C2=O)CC1)Nc1ccc2ncsc2c1 end up with in this test?
Data returned: no

Data request: What classification did Cc1cc(I)cc(CNCCN2CCOCC2)c1O end up with in this test?
Data returned: no

Data request: What classification did Clc1ccc(C2CC(c3cccc(Nc4ccncc4)c3)=NN2c2ccccc2)cc1 (stereo unspecified) end up with in this test?
Data returned: no

Data request: What classification did COc1cc(-c2cc(-c3cccs3)c(C#N)c(N3CCOCC3)n2)cc(OC)c1OC end up with in this test?
Data returned: no

Data request: What classification did C[C@]12CCCN1CC1=NNC(=O)c3cc(F)cc4[nH]c2c1c34 end up with in this test?
Data returned: no

Data request: What classification did O=c1c2cccc(F)c2sc2c(NCCCNCCO)nc3ccccc3c12 end up with in this test?
Data returned: no

Data request: What classification did C[C@@H]1CC[C@H]2[C@@H](C)C(OC/C=C/COC3O[C@@H]4O[C@@]5(C)CC[C@H]6[C@H](C)CC[C@@H]([C@H]3C)[C@@]46OO5)O[C@@H]3O[C@@]4(C)CC[C@@H]1[C@]32OO4 (stereo partly specified) end up with in this test?
Data returned: yes

Data request: What classification did CCC(CC)c1cc(N[C@H]2CC[C@H](N)C2)n2nccc2n1 end up with in this test?
Data returned: no

Data request: What classification did c1ccc(COCC[P+](c2ccccc2)(c2ccccc2)c2ccccc2)cc1 end up with in this test?
Data returned: no

Data request: What classification did O=C1Nc2ccc(O)cc2/C1=C\c1ccncc1 end up with in this test?
Data returned: no

Data request: What classification did COc1ccc(/C(=C/c2ccc3ccccc3c2)c2nn[nH]n2)cc1OC end up with in this test?
Data returned: no

Data request: What classification did Cc1cc2c(C(=O)NCC#N)cccc2n1-c1nc2c(c(NCc3ccccc3)n1)CCCC2 end up with in this test?
Data returned: yes

Data request: What classification did C=C1C[C@@H](O)[C@@H](Br)C(C)(C)[C@]12CCC(C)(Br)C(Cl)C2 (stereo partly specified) end up with in this test?
Data returned: no

Data request: What classification did CNCCCn1c2c(c3ccc(Cl)cc3c1=O)C(=O)c1cc(OC)cnc1-2 end up with in this test?
Data returned: yes

Data request: What classification did CCOC(=O)Nc1ccc2nc(N3CCCCCC3)sc2c1 end up with in this test?
Data returned: no

Data request: What classification did NS(=O)(=O)c1ccc(N=Nc2c(O)[nH]c3ccc(C(=O)NCCc4cnc[nH]4)cc23)cc1 end up with in this test?
Data returned: no

* * *

System: UACC-257 melanoma
Test: NCI tumour cell line growth inhibition, 48 h
measured metric: TGI

Data request: Checklist item: TGI tested on UACC-257 melanoma, entry CC(C)(C)[Si](C)(C)OC1[C@@H](O[Si](C)(C)C(C)(C)C)[C@@H](CNC(=O)NC(=O)NC(=O)CCl)O[C@H]1n1cnc2c(NC(=O)Nc3ccccc3)ncnc21 (stereo not given in full) , value?
Data returned: 13.2 µM

Data request: Checklist item: TGI tested on UACC-257 melanoma, entry O=c1ccc2c(Cl)cccc2o1 , value?
Data returned: > 100 µM

Data request: Checklist item: TGI tested on UACC-257 melanoma, entry COc1ccc(CN2C(=O)/C(=C\C(=O)c3ccc(OCCN4CCCC4)cc3)c3ccccc32)cc1 , value?
Data returned: 40.3 µM

Data request: Checklist item: TGI tested on UACC-257 melanoma, entry O=C(Nc1ccc(Oc2ccc(NC(=O)Nc3ccccc3Cl)cc2)cc1)Nc1ccccc1Cl , value?
Data returned: > 28.2 µM

Data request: Checklist item: TGI tested on UACC-257 melanoma, entry O=C(CN(Cc1ccccc1)Cc1ccccc1)N1CCc2c([nH]c3ccccc23)C1c1cccnc1 (stereo not given) , value?
Data returned: > 100 µM

Data request: Checklist item: TGI tested on UACC-257 melanoma, entry Cc1n[nH]c(=O)n1Nc1ccccc1 , value?
Data returned: > 100 µM

Data request: Checklist item: TGI tested on UACC-257 melanoma, entry O=C(CCC(=O)Nc1ccc(Cl)cc1)CC(=O)c1ccc2ccccc2c1 , value?
Data returned: > 100 µM

Data request: Checklist item: TGI tested on UACC-257 melanoma, entry O=C(/C=C\c1ccsc1)c1ccccc1 , value?
Data returned: 34.8 µM

Data request: Checklist item: TGI tested on UACC-257 melanoma, entry Clc1ccc(-c2nc3c(-c4ccccc4)nc(-c4ccccc4)cn3c2-c2ccc(Cl)cc2)cc1 , value?
Data returned: > 100 µM

Data request: Checklist item: TGI tested on UACC-257 melanoma, entry Cc1cc(I)cc(CNCCN2CCOCC2)c1O , value?
Data returned: > 100 µM

* * *

System: HCT-15 colon
Assay: NCI tumour cell line growth inhibition, 48 h
measured metric: TGI (nM)
State just the number; it will be interpreted in nM.

Data request: Sample C=C1C2C[C@@H]3O[C@H]4C[C@H]5O[C@@]6(C[C@@H]7O[C@]8(C[C@H](C)[C@@H]9O[C@@H]%10CC(C=O)O[C@@H]%10C[C@@H]9O8)C[C@H](C)[C@@H]7O6)C[C@H]5O[C@H]4[C@H](C)[C@H]3OC(=O)C[C@H]3CC[C@@H]4OC5[C@H]6O[C@]7(CC[C@H]8CC(=C)[C@H](CC[C@@H](C[C@H]1C)O2)O8)CC6O[C@@H]5[C@@H](O7)[C@H]4O3 (some centres not stated) — what was its TGI?
Data returned: 6.09

* * *

Tested on: UO-31 renal
Assay: NCI tumour cell line growth inhibition, 48 h
Rule: class 1 for TGI not less than 40 µM, class 0 for anything less.

Data request: Kindly determine if TGI recorded for CC(=O)c1cc(CC2Cc3cc4c(cc3C2=O)CCC4)cc2c1CCC2 (configuration not stated) is above or exactly 40 µM.
Data returned: class 1

Data request: Kindly determine if TGI recorded for CCOc1ccc(N2C(=O)NC3(c4ccccc4)N(C)C(=O)N(C)C23c2ccccc2)cc1 (configuration not stated) is above or exactly 40 µM.
Data returned: class 1

Data request: Kindly determine if TGI recorded for COc1ccc2nc3c(C)cc4ccccc4n3c2c1 is above or exactly 40 µM.
Data returned: class 1

Data request: Kindly determine if TGI recorded for COc1cccc(CCNC(=O)CC(c2ccccc2)(c2ccccc2)c2ccccc2)c1 is above or exactly 40 µM.
Data returned: class 1

Data request: Kindly determine if TGI recorded for C1=Nc2ccccc2Cn2nncc21 is above or exactly 40 µM.
Data returned: class 1

Data request: Kindly determine if TGI recorded for CC1NC(C(=O)O)Cc2cc(O)c(O)cc21 (configuration not stated) is above or exactly 40 µM.
Data returned: class 1

Data request: Kindly determine if TGI recorded for CCC(CC)c1cc(N[C@H]2CC[C@H](N)C2)n2nccc2n1 is above or exactly 40 µM.
Data returned: class 0

Data request: Kindly determine if TGI recorded for O=C1N=CN=C2C=CC(Cl)=C(I)C12 (configuration not stated) is above or exactly 40 µM.
Data returned: class 1

Data request: Kindly determine if TGI recorded for O=[N+]([O-])c1ccc(NNN=Nc2ccc(-c3nc4ccccc4[nH]3)cc2)c([N+](=O)[O-])c1 is above or exactly 40 µM.
Data returned: class 1

Data request: Kindly determine if TGI recorded for COC1=CC(=O)c2c(c(COC(C)=O)cn2C)C1=O is above or exactly 40 µM.
Data returned: class 0

Data request: Kindly determine if TGI recorded for O=C(CN1CCN(CCN2C(=O)c3cccc4cccc(c34)C2=O)CC1)Nc1ccc2ncsc2c1 is above or exactly 40 µM.
Data returned: class 0

Data request: Kindly determine if TGI recorded for O=S(=O)(Nc1nccs1)c1ccc([As](=O)(O)O)cc1 is above or exactly 40 µM.
Data returned: class 1

Data request: Kindly determine if TGI recorded for CC1=NN(c2cccc(Cl)c2)C2(C1=Cc1cccs1)C(Cl)C(=O)N2c1nc2ccccc2s1 (configuration not stated) is above or exactly 40 µM.
Data returned: class 1

Data request: Kindly determine if TGI recorded for COc1ccc(CN2C(=O)/C(=C\C(=O)c3ccc(OCCN4CCCC4)cc3)c3ccccc32)cc1 is above or exactly 40 µM.
Data returned: class 0

Data request: Kindly determine if TGI recorded for C[C@]12CCCN1CC1=NNC(=O)c3cc(F)cc4[nH]c2c1c34 is above or exactly 40 µM.
Data returned: class 1

Data request: Kindly determine if TGI recorded for CN(CC(=O)O)CC(=O)O is above or exactly 40 µM.
Data returned: class 1

Data request: Kindly determine if TGI recorded for Cc1cc(Cl)ccc1NC(=O)CC1SC(=NC(=O)c2ccccc2Cl)NC1=O (configuration not stated) is above or exactly 40 µM.
Data returned: class 1

Data request: Kindly determine if TGI recorded for CN1CN(c2ccccc2)C2(CCN(C3Nc4ccccc4O3)CC2)C1=O (configuration not stated) is above or exactly 40 µM.
Data returned: class 1

Data request: Kindly determine if TGI recorded for CC(O)CC(=O)CO[C@H]1[C@H](O)[C@@H](O)[C@@H](O)[C@@H]2NC(=O)c3c(cc4c(c3O)OCO4)[C@H]21 (some centres not stated) is above or exactly 40 µM.
Data returned: class 0

Data request: Kindly determine if TGI recorded for O=c1oc2ccc3ccccc3c2cc1-c1nc(-c2ccc([N+](=O)[O-])cc2)n[nH]1 is above or exactly 40 µM.
Data returned: class 1

Data request: Kindly determine if TGI recorded for CC(=O)NNc1nc(C)c(C(/C=C/c2ccc(Cl)cc2)=N\N=C(N)N)s1 is above or exactly 40 µM.
Data returned: class 1

Data request: Kindly determine if TGI recorded for CC12CCCC(C#N)(C1)OC2=O (configuration not stated) is above or exactly 40 µM.
Data returned: class 1

Cited source for all entries: PubChem BioAssay (NCI)
